Measured CC50, listed per entry.
test: in vitro; conditions: African green monkey

| compound | CC50 |
| --- | --- |
| CC(=O)N[C@H]1[C@H]([C@H](O)[C@H](O)CO)OC(C(=O)O)=C[C@@H]1N=C(N)N [Compound 2, Zanamivir, reference compound] | > 2.5 mM |
| O=C(O)C1=C[C@H](NC(=O)C(F)(F)F)[C@@H](NC(=O)C(F)(F)F)[C@H]([C@H](O)[C@H](O)CO)O1 | > 2.5 mM |
| [N-]=[N+]=N[C@H]1C=C(C(=O)O)O[C@@H]([C@H](O)[C@H](O)CO)[C@@H]1NC(=O)C(F)(F)C(F)(F)C(F)(F)F | > 2.5 mM |

====

molecular target: NDV-HN of three NDV strains (two NDV La Sota and the velogenic strain APMV-1/chicken/Egypt/13VIR-5009-2/2013) (Newcastle disease virus); assay: biochemical
pIC50: −log10 of the molar value.
property-measured: pIC50

| compound | assay-value |
| --- | --- |
| CC(=O)N[C@H]1[C@H]([C@H](O)[C@H](O)CO)OC(C(=O)O)=C[C@@H]1N=C(N)N [Compound 2, Zanamivir, reference compound] | 4.15 to 4.64 |
| Cc1ccc(C(=O)N[C@H]2C=C(C(=O)O)O[C@@H]([C@H](O)[C@H](O)CO)[C@@H]2NC(=O)C(F)(F)F)cc1 | ≥ 6.70 |
| [N-]=[N+]=N[C@H]1C=C(C(=O)O)O[C@@H]([C@H](O)[C@H](O)CO)[C@@H]1NC(=O)C(F)(F)F | ~7.52 |

====

target: NDV-HN of three NDV strains (two NDV La Sota and the velogenic strain APMV-1/chicken/Egypt/13VIR-5009-2/2013) (Newcastle disease virus, UniProt P35743); assay: biochemical
Sequence (P35743 whole entry, looked up): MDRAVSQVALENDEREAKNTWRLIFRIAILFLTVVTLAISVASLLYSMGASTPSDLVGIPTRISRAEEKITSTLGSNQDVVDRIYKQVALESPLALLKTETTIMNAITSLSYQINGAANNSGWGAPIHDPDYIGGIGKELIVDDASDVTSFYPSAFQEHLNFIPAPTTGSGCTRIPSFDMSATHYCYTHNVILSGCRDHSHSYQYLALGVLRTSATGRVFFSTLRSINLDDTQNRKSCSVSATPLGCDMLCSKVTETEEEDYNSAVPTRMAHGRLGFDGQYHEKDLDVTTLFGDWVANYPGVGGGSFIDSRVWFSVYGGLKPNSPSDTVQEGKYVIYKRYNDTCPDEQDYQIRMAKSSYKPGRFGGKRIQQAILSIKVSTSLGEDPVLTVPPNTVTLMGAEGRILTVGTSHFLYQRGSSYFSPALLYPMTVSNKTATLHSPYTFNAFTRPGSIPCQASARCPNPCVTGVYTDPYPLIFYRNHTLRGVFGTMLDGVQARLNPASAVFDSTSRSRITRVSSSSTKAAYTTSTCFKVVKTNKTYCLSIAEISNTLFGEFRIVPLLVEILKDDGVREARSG
Collected IC50 values appear next to each entry.
property-measured: IC50

| compound | property-measured | assay-value |
| --- | --- | --- |
| O=C(O)C1=C[C@H](O)[C@@H](NC(=O)C(F)(F)F)[C@H]([C@H](O)[C@H](O)CO)O1 [Compound 5, reference compound] | IC50 | 6.2 to 14 µM |
| O=C(O)C1=C[C@H](NC(=O)C(F)(F)F)[C@@H](NC(=O)C(F)(F)F)[C@H]([C@H](O)[C@H](O)CO)O1 [Compound 24] | IC50 | ≤ 0.2 µM |
| [N-]=[N+]=N[C@H]1C=C(C(=O)O)O[C@@H]([C@H](O)[C@H](O)CO)[C@@H]1NC(=O)C(F)(F)C(F)(F)C(F)(F)F [Compound 10] | IC50 | ~0.03 µM |
| CC(=O)N[C@H]1[C@H]([C@H](O)[C@H](O)CO)OC(C(=O)O)=C[C@@H]1O [Compound 1, reference compound] | IC50 | 6.2 to 14 µM |

Just for reference, paper PMC10012260 is where these values come from.
